Recorded IC50 for the following compounds
targetEntity: KRAS G12C (Homo sapiens, UniProt P01116, G12C)
Sequence (P01116 2-169 isoform P01116-2 G12C): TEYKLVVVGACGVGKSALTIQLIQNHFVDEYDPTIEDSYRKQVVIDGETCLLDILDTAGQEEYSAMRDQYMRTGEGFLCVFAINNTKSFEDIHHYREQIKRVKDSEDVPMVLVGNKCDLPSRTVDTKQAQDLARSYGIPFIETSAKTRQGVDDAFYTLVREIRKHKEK
testName: KRAS G12C nucleotide exchange assay (SOS1-mediated, HTRF)
testSettings: 1 hr pre-incubation

Ask: Need IC50 of C=C(COC(=O)NCCCc1cc(Cl)cc(NC(=O)NCc2ccc3c(c2)CN(C2CCC(=O)NC2=O)C3=O)c1)C(=O)N1CCN(c2nc(OC[C@@H]3CCCN3C)nc3c2CCN(c2cccc4cccc(Cl)c24)C3)C[C@@H]1CC#N (some centres unmarked) , thanks.
Result: < 100 nM

Ask: Quick one: IC50 of C=C(COc1cc(NC(=O)NCc2ccc3c(c2)CN(C2CCC(=O)NC2=O)C3=O)ccc1OC)C(=O)N1CCN(c2nc(OC[C@@H]3CCCN3C)nc3c2CCN(c2cccc4cccc(Cl)c24)C3)C[C@@H]1CC#N (some centres unmarked) ?
Result: < 100 nM

Ask: Entry under review: C=C(COc1cc(NC(=O)NCc2ccc3c(c2F)CN(C2CCC(=O)NC2=O)C3=O)cc(C(F)(F)F)c1)C(=O)N1CCN(c2nc(OC[C@@H]3CCCN3C)nc3c2CCN(c2cccc4cccc(Cl)c24)C3)C[C@@H]1CC#N (some centres unmarked) . Reported IC50?
Result: < 100 nM

Ask: Can you look up the measured IC50 of C=C(COc1ccccc1NC(=O)NCc1ccc2c(c1)CN(C1CCC(=O)NC1=O)C2=O)C(=O)N1CCN(c2nc(OC[C@H]3CCCN3C)nc3c2CCN(c2cccc4cccc(Cl)c24)C3)C[C@H]1CC#N (some centres unmarked) for me?
Result: < 100 nM

Ask: What does the record list as IC50 for C=C(CN(C)c1cccc(NC(=O)NCc2ccc3c(c2)CN(C2CCC(=O)NC2=O)C3=O)c1)C(=O)N1CCN(c2nc(OC[C@@H]3CCCN3C)nc3c2CCN(c2cccc4cccc(Cl)c24)C3)C[C@@H]1CC#N (some centres unmarked) ?
Result: 5000 to 10000 nM

Ask: Reported IC50, compound C=C(COc1cc(NC(=O)NCc2ccc3c(c2)CN(C2CCC(=O)NC2=O)C3=O)cc(OC)c1)C(=O)N1CC2(CC(n3nc(-c4ccc5c(cnn5C)c4)c(-c4c(Cl)c(C)cc5[nH]ncc45)c3C)C2)C1 (centres unmarked) : ____
Result: 100 to 5000 nM

Ask: Which IC50 is listed for C=C(COC(=O)c1c(C)csc1NC(=O)NCc1ccc2c(c1)CN(C1CCC(=O)NC1=O)C2=O)C(=O)N1CCN(c2nc(OC[C@@H]3CCCN3C)nc3c2CCN(c2cccc4cccc(Cl)c24)C3)C[C@@H]1CC#N (some centres unmarked) ?
Result: < 100 nM

Ask: State the recorded IC50 for this entry: C=C(CN1C(=O)CCC(N2Cc3cc(CNC(=O)Nc4ccc(C)c(Cl)c4)ccc3C2=O)C1=O)C(=O)N1CCN(c2nc(OC[C@@H]3CCCN3C)nc3c2CCN(c2cccc4cccc(Cl)c24)C3)C[C@@H]1CC#N (some centres unmarked)
Result: > 10000 nM

Ask: Tell me the measured IC50 of C=C(COc1cc(Cl)cc(NC(=O)NCc2ccc3c(c2)CN(C2CCC(=O)NC2=O)C3=O)c1)C(=O)N1CC2(CC(n3nc(-c4ccc5c(cnn5C)c4)c(-c4c(Cl)c(C)cc5[nH]ncc45)c3C)C2)C1 (centres unmarked) , please.
Result: 100 to 5000 nM

Ask: Form field: reported IC50 of C=C(COc1cc(C(F)(F)C(=O)NCc2ccc3c(c2)CN(C2CCC(=O)NC2=O)C3=O)ccc1Cl)C(=O)N1CCN(c2nc(OC[C@@H]3CCCN3C)nc3c2CCN(c2cccc4cccc(Cl)c24)C3)C[C@@H]1CC#N (some centres unmarked)
Result: < 100 nM

Shifting focus to the compound that follows.
Ask: # query: IC50 of entry C=C(COc1cc(NC(=O)NCc2ccc3c(c2)CN(C2CCC(=O)NC2=O)C3=O)cc(C(F)(F)F)c1)C(=O)N1CC2(CC(n3nc(-c4ccc5c(cnn5C)c4)c(-c4c(Cl)c(C)cc5[nH]ncc45)c3C)C2)C1 (centres unmarked)
Result: 100 to 5000 nM
